Species on record: Rattus norvegicus
Test: DrugMatrix - Regimen: Daily Repeat
Assay type: toxicity, organism-based, Sprague-Dawley
Design: regimen Daily Repeat, gender Male, age 6-8 weeks
Conditions: in vivo, po, 0 mg/kg, 72 h, tissue Blood, route oral GAVAGE, dose level Control, time 3 day, vehicle 100 % WATER
Reported metric: LEUKOCYTE COUNT
Lab note: write values as number then unit, every time.

// solved cases for LEUKOCYTE COUNT follow
Molecule	LEUKOCYTE COUNT
C[C@]12C=CC(=O)C=C1CC[C@@H]1[C@@H]2[C@@H](O)C[C@@]2(C)[C@H]1CC[C@]2(O)C(=O)CO [PREDNISOLONE]	15.35 x10E3/uL
CN1[C@@H]2CC[C@H]1C[C@@H](OC(=O)C(CO)c1ccccc1)C2 (stereo partly drawn) [ATROPINE]	12.58 x10E3/uL

--- query ---
Find the recorded LEUKOCYTE COUNT belonging to CS(=O)(=O)c1ccc([C@@H](O)[C@@H](CO)NC(=O)C(Cl)Cl)cc1 [THIAMPHENICOL] and report it.
12 x10E3/uL
